test system: GLXMAW Soybean, Williams; test: Postemergence herbicidal evaluation, GLXMAW; format: in vivo, Glycine max, (L.) Merr. cv Williams; parameters: scale not given here; settings: 0.032 kg/ha, postemergence spray, rated about two-three weeks after treatment
Quick rule: Postemergence herbicidal rating GLXMAW of at least 6 means label 1, below that means label 0.

| Compound | Assigned class |
| --- | --- |
| C=CCOc1ccc(C)cc1-n1nnc2cc(F)c(-n3c(=O)cc(C(F)(F)F)n(C)c3=O)cc21 | label 1 |
| COC(=O)COc1ccc(-n2nnc3cc(F)c(-n4c(=O)cc(C(F)(F)F)n(C)c4=O)cc32)c(C)c1 | label 0 |
| Cc1cc(O)ccc1-n1nnc2cc(F)c(-n3c(=O)cc(C(F)(F)F)n(C)c3=O)cc21 | label 0 |
| CCc1cccc(-n2nnc3cc(F)c(-n4c(=O)cc(C(F)(F)F)n(C)c4=O)cc32)c1 | label 1 |
| Cc1ccc(-n2nnc3cc(F)c(-n4c(=O)cc(C(F)(F)F)n(C)c4=O)cc32)cc1 | label 1 |
| COC(=O)C(C)Oc1ccc(C)cc1-n1nnc2cc(F)c(-n3c(=O)cc(C(F)(F)F)n(C)c3=O)cc21 (stereo not drawn) | label 1 |
| COCc1ccccc1-n1nnc2cc(F)c(-n3c(=O)cc(C(F)(F)F)n(C)c3=O)cc21 | label 0 |
| CC(C)c1ccc(-n2nnc3cc(F)c(-n4c(=O)cc(C(F)(F)F)n(C)c4=O)cc32)cc1 | label 0 |
| COC(=O)COc1ccc(C)cc1-n1nnc2cc(F)c(-n3c(=O)cc(C(F)(F)F)n(C)c3=O)cc21 | label 1 |
| Cn1c(C(F)(F)F)cc(=O)n(-c2cc3c(cc2F)nnn3-c2ccc(OCC(=O)O)cc2)c1=O | label 1 |
| CCc1ccc(-n2nnc3cc(F)c(-n4c(=O)cc(C(F)(F)F)n(C)c4=O)cc32)cc1 | label 0 |
| Cc1ccc(-n2nnc3cc(F)c(-n4c(=O)cc(C(F)(F)F)n(C)c4=O)cc32)cc1C | label 0 |
| C#CCOC(=O)COc1ccc(C)cc1-n1nnc2cc(F)c(-n3c(=O)cc(C(F)(F)F)n(C)c3=O)cc21 | label 1 |

Cited source: patent US20020111274A1
